This section presents compounds with their documented Metabolic stability in human hepatic microsome values.
MEASUREMENT PROTOCOL: Test 3-1: metabolic stability test in human hepatic microsome
Assay type: in vitro ADME
ASSAY CONDITIONS: Test 3-1: microsome 0.1 mg/mL, test compound 0.1 μmol/L, 37° C., 30 minutes

>>> result("CCN(CCN1CCC(c2noc3cc(F)ccc23)CC1)C(=O)C1CNCCC1O (stereo not drawn) [Example 67]")
"<0.05 mL/min/mg protein"
>>> result("CCN(CCN1CCN(c2noc3cc(F)ccc23)CC1)C(=O)C(C)O (stereo not drawn) [Example 27]")
"<0.05 mL/min/mg protein"
>>> result("CC(O)C(=O)N(CCN1CCC(c2noc3cc(F)ccc23)CC1)CC1CC1 (stereo not drawn) [Example 30]")
"<0.05 mL/min/mg protein"
>>> result("CCN(CCN1CCC(c2noc3cc(F)ccc23)CC1)C(=O)C(O)CN (stereo not drawn) [Example 65]")
"<0.05 mL/min/mg protein"
>>> result("CCN(CCN1CCC(c2c[nH]c3cc(F)ccc23)CC1)S(=O)(=O)CCO [Example 62]")
"<0.05 mL/min/mg protein"
>>> result("CCN(CCN1CCC(c2noc3cc(F)ccc23)CC1)C(=O)C1CCC(O)CC1 (stereo not drawn) [Example 9]")
"<0.05 mL/min/mg protein"
>>> result("CCN(CCN1CCC(c2c[nH]c3ccccc23)CC1)S(=O)(=O)CCO [Example 57]")
"0.06 mL/min/mg protein"
>>> result("CCN(CCN1CCC(c2c[nH]c3cc(F)ccc23)CC1)C(=O)[C@H](C)O [Example 20]")
"<0.05 mL/min/mg protein"

-- ask # Metabolic stability in human hepatic microsome lookup, item CCN(CCN1CCC(c2noc3cc(F)ccc23)CC1)C(=O)C1CNCC1O (stereo not drawn) [Example 66]
-- reply <0.05 mL/min/mg protein

* * *

This section presents compounds with their documented Metabolic stability in human hepatic microsome values.
MEASUREMENT PROTOCOL: Test 3-1: metabolic stability test in human hepatic microsome
Format: in vitro ADME
ASSAY CONDITIONS: Test 3-1: microsome 0.1 mg/mL, test compound 0.1 μmol/L, 37° C., 30 minutes

>>> result("CCN(CCN1CCC(c2noc3cc(F)ccc23)CC1)C(=O)C1CN(C(C)=O)CCC1O (stereo not shown)")
"<0.05 mL/min/mg protein"
>>> result("CCN(CCN1CCC(c2noc3cc(F)ccc23)CC1)C(=O)C1(O)CCCN(C(C)=O)C1 (stereo not shown)")
"0.057 mL/min/mg protein"
>>> result("CCN(CCN1CCC(c2noc3cc(F)ccc23)CC1)C(=O)C1(O)CCOCC1")
"<0.05 mL/min/mg protein"

Here is the next item to consider.
-- ask # Metabolic stability in human hepatic microsome lookup, item `CCN(CCN1CCC(c2c[nH]c3ccccc23)CC1)C(=O)[C@H](C)O`
-- reply <0.05 mL/min/mg protein

* * *

SYSTEM UNDER TEST: UniProtKB Q12809
Sequence (Q12809 whole entry): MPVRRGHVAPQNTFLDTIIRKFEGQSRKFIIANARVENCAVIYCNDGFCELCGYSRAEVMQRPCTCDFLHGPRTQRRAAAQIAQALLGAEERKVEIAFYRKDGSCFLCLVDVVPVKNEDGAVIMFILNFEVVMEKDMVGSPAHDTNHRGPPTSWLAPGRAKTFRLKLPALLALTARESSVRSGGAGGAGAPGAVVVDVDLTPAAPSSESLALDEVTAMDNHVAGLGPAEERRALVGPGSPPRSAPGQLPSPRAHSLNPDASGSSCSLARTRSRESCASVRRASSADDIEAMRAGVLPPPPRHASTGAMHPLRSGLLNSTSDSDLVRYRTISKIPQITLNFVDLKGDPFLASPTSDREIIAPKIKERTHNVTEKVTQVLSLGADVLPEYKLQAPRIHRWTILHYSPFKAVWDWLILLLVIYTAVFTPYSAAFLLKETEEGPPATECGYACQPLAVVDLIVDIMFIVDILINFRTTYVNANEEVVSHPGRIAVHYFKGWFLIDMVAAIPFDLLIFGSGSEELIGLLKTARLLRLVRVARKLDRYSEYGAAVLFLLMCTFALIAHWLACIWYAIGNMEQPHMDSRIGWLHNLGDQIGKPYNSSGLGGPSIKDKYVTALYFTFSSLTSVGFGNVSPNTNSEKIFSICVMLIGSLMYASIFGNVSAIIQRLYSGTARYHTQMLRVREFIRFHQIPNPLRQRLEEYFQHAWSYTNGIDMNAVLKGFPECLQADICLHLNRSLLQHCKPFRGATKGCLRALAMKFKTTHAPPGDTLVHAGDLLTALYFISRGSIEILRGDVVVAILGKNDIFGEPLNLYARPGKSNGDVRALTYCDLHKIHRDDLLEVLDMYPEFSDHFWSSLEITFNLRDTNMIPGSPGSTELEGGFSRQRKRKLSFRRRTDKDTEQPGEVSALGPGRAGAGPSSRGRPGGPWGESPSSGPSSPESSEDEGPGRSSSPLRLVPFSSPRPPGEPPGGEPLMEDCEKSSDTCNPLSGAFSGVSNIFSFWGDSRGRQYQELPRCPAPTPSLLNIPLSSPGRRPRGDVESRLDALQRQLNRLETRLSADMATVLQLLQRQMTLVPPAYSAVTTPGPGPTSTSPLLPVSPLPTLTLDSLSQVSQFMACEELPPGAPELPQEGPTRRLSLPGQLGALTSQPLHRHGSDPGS
MEASUREMENT PROTOCOL: Test 5: inhibitory activity for hERG channel (whole cell patch clamp, hERG-CHO cells)
ASSAY CONDITIONS: hERG-CHO cells, auto patch clamp
pIC50: −log10 of the molar value.
ASSAY READOUT: pIC50

-- ask Which measured pIC50 belongs to CCN(CCN1CCC(c2noc3cc(F)ccc23)CC1)C(=O)C(O)CNC(C)=O (stereo not shown) , tested on UniProtKB Q12809?
-- reply < 5.00
